Target: rat NaPi-2b (Rattus norvegicus, UniProt Q9JJ09)
Sequence (Q9JJ09 whole entry): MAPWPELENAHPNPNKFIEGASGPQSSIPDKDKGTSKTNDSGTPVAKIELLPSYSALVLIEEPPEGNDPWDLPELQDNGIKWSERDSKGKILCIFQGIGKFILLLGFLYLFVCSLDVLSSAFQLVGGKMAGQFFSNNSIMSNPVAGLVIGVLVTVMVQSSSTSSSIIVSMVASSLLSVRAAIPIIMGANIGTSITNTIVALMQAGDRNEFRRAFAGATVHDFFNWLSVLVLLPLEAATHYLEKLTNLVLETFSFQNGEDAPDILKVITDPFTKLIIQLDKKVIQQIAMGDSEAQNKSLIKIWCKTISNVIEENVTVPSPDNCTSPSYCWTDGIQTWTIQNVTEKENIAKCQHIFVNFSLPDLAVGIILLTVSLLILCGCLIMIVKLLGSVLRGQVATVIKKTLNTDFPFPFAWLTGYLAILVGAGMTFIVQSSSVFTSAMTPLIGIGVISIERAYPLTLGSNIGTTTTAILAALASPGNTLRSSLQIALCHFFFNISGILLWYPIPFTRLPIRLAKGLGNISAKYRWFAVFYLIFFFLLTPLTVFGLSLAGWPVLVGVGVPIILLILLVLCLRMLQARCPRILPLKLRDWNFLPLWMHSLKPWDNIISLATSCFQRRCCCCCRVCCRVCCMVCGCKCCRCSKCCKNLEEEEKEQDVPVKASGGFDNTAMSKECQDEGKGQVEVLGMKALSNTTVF
Experiment: Sodium-dependent phosphate uptake of Xenopus oocytes which expressed NaPi-2b (32P)
Settings: Xenopus oocytes expressing rat NaPi-2b, 32P radioactive phosphorus; read-out: IC50 (phosphate uptake inhibitory activity)
Reported IC50 values for a set of molecules
Answer in µM, number only, no unit symbol.

COc1ccc(C(=O)Nc2ccc(C)cc2C(=O)N/N=C/c2cccc(C)c2)cc1OC    15.6
Cn1cccc1/C=N/NC(=O)c1ccccc1NC(=O)c1ccncc1    35
COc1ccc(NC(=O)c2ccc(OC)c(OC)c2)c(C(=O)N/N=C/c2ccc(F)cc2)c1    9.2
COc1ccc(C(=O)Nc2ccccc2C(=O)N/N=C/c2ccc(OC(F)(F)F)cc2)cc1OC    15
COc1cc(OC)cc(C(=O)Nc2ccc(Br)cc2C(=O)N/N=C/c2ccc(OC)c(OC)c2)c1    11.6

Item: "COc1ccc(/C=N/NC(=O)c2cc(Br)ccc2NC(=O)c2ccc(CN3CCN(CC(=O)N4CCOCC4)CC3)cc2)cc1" | System: rat NaPi-2b (Rattus norvegicus, UniProt Q9JJ09) | IC50: 41.2

Item: Cc1ccc(/C=N/NC(=O)c2cc(Br)ccc2NC(=O)c2cccnc2)cc1 [Compound 175] | System: rat NaPi-2b (Rattus norvegicus, UniProt Q9JJ09) | IC50: 3.57

Item: "O=C(Nc1ccc(Cl)cc1C(=O)N/N=C/c1cccc(F)c1)c1cccc(CSCc2ccco2)c1" | System: rat NaPi-2b (Rattus norvegicus, UniProt Q9JJ09) | IC50: 4.04

Item: "Cc1ccc(/C=N/NC(=O)c2cc(Cl)ccc2NC(=O)c2cccc(CN3CCC(N4CCCCC4)CC3)c2)cc1" | System: rat NaPi-2b (Rattus norvegicus, UniProt Q9JJ09) | IC50: 2.54
